Source: PubChem BioAssay (NCATS)

tested on: Es-2; test: Primary qHTS to identify gynecologic anti-cancer compounds using libraries of approved drugs and bioactive compounds (AID 1345084); settings: Gynecologic cancer cell panel viability, ATPlite luminescence, 48 h; series mostly up to 57.5 µM; also: nearly all actives have a fitted effect of over 55% in size
Records with an inconclusive call do not appear. Activity calls are given as the source filed them. Calls follow the shape of the dose curve; as a rule, active = well fitted cell-killing curve with a large enough effect; inconclusive = small, poorly fitted or top-dose-only effect, or effect the other way; inactive = flat fitted curve, though single readings scatter.
Pick one and only one: active, inactive

Assay result, entry `CCOC(=O)c1ccc(OC(=O)CCCCCN=C(N)N)cc1` — outcome? inactive

Assay result, entry `CCOC(=O)[C@H](CCc1ccccc1)N[C@H]1CS[C@H](c2cccs2)CN(CC(=O)O)C1=O` — outcome? inactive

Assay result, entry `Cc1cccc(N(C)C(=S)Oc2ccc3ccccc3c2)c1` — outcome? inactive

Assay result, entry `CC1(C)[C@H](C(=O)O)N2C(=O)C[C@H]2S1(=O)=O` — outcome? inactive

Assay result, entry `CC(C)(C)C(=O)OCOP(=O)(COCCn1cnc2c(N)ncnc21)OCOC(=O)C(C)(C)C` — outcome? active

Assay result, entry `NNC(=O)c1ccncc1` — outcome? inactive

Assay result, entry `CNS(=O)(=O)Cc1ccc2[nH]cc(CCN(C)C)c2c1` — outcome? inactive

Assay result, entry C1CCC(C(CC2CCCCN2)C2CCCCC2)CC1 (stereo not given) — outcome? active

Assay result, entry `COc1nc(N)nc2c1ncn2[C@@H]1O[C@H](CO)[C@@H](O)[C@@H]1O` — outcome? inactive

Assay result, entry `COc1cccc(N(C)C(=S)Oc2ccc3c(c2)CCCC3)n1` — outcome? inactive

Assay result, entry `OC(Cn1cncn1)(Cn1cncn1)c1ccc(F)cc1F` — outcome? inactive

Assay result, entry CCOc1cc(N)c(Cl)cc1C(=O)NCC1CN(Cc2ccc(F)cc2)CCO1 (stereo not given) — outcome? inactive

Assay result, entry `NCCCC(O)(P(=O)(O)O)P(=O)(O)O` — outcome? inactive

Assay result, entry `CCC(=O)O[C@]1(C(=O)CCl)[C@@H](C)C[C@H]2[C@@H]3CCC4=CC(=O)C=C[C@]4(C)[C@@]3(F)[C@@H](O)C[C@@]21C` — outcome? inactive

Assay result, entry `COC(c1ccccc1)(c1ccccc1)[C@H](Oc1nc(C)cc(C)n1)C(=O)O` — outcome? inactive

Assay result, entry `CCCc1nc(C)c2c(=O)[nH]c(-c3cc(S(=O)(=O)N4CCN(CC)CC4)ccc3OCC)nn12` — outcome? inactive

Assay result, entry `O=C(N[C@H](CO)[C@H](O)c1ccc([N+](=O)[O-])cc1)C(Cl)Cl` — outcome? inactive

Assay result, entry `COc1ccc2cc3[n+](cc2c1OC)CCc1cc2c(cc1-3)OCO2` — outcome? active

Assay result, entry O=C(NCC1CN(c2ccc(N3CCOCC3=O)cc2)C(=O)O1)c1ccc(Cl)s1 (stereo not given) — outcome? inactive

Assay result, entry `CNS(=O)(=O)CCc1ccc2[nH]cc(C3CCN(C)CC3)c2c1` — outcome? inactive
